# measured-target: SHP2-C SH2;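 also: peptide library displayed on the E. coli surface as eCPX fusions, selected cells deep-sequenced, score is each peptide's frequency after selection divided by its frequency in the input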
# method-summary: SH2 binding enrichment of the phosphorylated peptide, bacterial display (enrichment ratio); higher = better substrate or ligand; peptides without Tyr show the background
Reported values of SH2 binding enrichment for individual entries

Please look up its SH2 binding enrichment: CGTPTYLAPEV [CHEK2_Y390]
0.785

Please look up its SH2 binding enrichment: VSYDEYRYRSV [CFTR_Y515]
0.822

Please look up its SH2 binding enrichment: DCAAIYGNEPD [AKR1A1_Y50_E55D]
0.813

Please look up its SH2 binding enrichment: EVVGRYSVHYA [MLH1_Y183_N187Y]
0.808

* * *

# measured-target: Fes (UniProt P07332)
# Sequence (P07332 whole entry, looked up): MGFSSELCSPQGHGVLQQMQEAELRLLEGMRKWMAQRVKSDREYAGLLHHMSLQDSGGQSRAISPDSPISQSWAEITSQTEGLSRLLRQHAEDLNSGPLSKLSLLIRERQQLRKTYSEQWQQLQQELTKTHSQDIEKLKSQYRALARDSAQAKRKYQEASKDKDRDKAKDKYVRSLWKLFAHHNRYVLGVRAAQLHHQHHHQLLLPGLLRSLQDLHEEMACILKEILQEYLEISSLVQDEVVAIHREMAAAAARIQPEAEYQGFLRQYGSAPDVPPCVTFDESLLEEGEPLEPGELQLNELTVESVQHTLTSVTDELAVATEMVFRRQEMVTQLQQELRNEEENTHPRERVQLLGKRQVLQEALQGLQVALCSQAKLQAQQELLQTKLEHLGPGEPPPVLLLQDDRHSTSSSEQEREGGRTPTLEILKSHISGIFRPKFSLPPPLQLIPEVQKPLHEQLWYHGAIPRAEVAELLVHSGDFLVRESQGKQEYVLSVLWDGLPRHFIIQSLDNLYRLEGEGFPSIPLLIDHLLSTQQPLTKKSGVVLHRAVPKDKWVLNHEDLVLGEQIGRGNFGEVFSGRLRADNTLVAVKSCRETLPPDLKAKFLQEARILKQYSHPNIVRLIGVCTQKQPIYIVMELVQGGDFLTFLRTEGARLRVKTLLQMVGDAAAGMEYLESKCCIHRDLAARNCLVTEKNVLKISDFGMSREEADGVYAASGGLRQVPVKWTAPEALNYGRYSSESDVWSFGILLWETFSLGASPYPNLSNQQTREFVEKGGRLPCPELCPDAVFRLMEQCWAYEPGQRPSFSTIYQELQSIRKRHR
# method-summary: phosphorylation enrichment, bacterial display (enrichment ratio); higher = better substrate or ligand; peptides without Tyr show the background
reported-endpoint: phosphorylation enrichment
The reply should be a number, written without any unit.

sequence: KLFFIYTPGTT [SLC27A4_Y245_S247P_YF]
measured-target: Fes (UniProt P07332)
measurement: 1.49
--
sequence: GGDGSYVSVPS [TNNI3K_Y425]
measured-target: Fes (UniProt P07332)
measurement: 0.565
--
sequence: FEEDPYLVVNP [MCM6_Y810_YF]
measured-target: Fes (UniProt P07332)
measurement: 1.46
--
sequence: PFTDPYFDFEI [ZC3H18_Y371_A368T_YF]
measured-target: Fes (UniProt P07332)
measurement: 1.88
--
sequence: IPQEEYTATGL
measured-target: Fes (UniProt P07332)
measurement: 1.39
--
sequence: KLFRVYCDMNT [FGB_Y269_P265L_YF]
measured-target: Fes (UniProt P07332)
measurement: 1.33

Please look up its phosphorylation enrichment: INNIDYFKNTT [FGFR2_Y656_K659N_YF]
0.687

Please look up its phosphorylation enrichment: STSYDYCRVPM [BST2_Y8]
0.892

Please look up its phosphorylation enrichment: HPHECYAKVFD [ALB_Y394_D389H]
1.36

Please look up its phosphorylation enrichment: ADSLRYIYPKL [EIF2B3_Y92]
0.602

Please look up its phosphorylation enrichment: PSQRRYLFFFS [PTEN_Y174_V175L_YF]
1.93

Please look up its phosphorylation enrichment: KLIETYFSKNF [PLP1_Y50_YF]
0.99

Please look up its phosphorylation enrichment: HNMPIYEGYAL [ACTA1_Y168_V165M]
2.64

Please look up its phosphorylation enrichment: CLRIDYERVSQ [DSP_Y1542_R1537C]
1.57
